- test: Stability in Sprague-Dawley rat blood at 10 MBq assessed as radioactive compound recovery
- Format: ADME, tissue-based
- test_parameters: whole blood, read-out: Stability
metric: remaining at 10 MBq

>  <smiles_input>
[11CH3]N1C=C(C(=O)NC(=N)NCc2cccc(I)c2)Cc2ccccc21

>  <experimental_result>
> 90%

$$$$

* * *

- test: Stability in Sprague-Dawley rat brain assessed as unchanged parent compound level at 15 to 120 MBq, iv after 60 mins
- Assay type: ADME, organism-based
- test_parameters: read-out: Stability

>  <smiles_input>
[11CH3]N1C=C(C(=O)NC(=N)NCc2cccc(I)c2)Cc2ccccc21

>  <remaining at 1 h / %>
59

$$$$

* * *

- test: Stability in Sprague-Dawley rat brain assessed as unchanged parent compound level at 15 to 120 MBq, iv after 3 mins
- Type: ADME, organism-based
- test_parameters: read-out: Stability

>  <smiles_input>
[11CH3]N1C=C(C(=O)NC(=N)NCc2cccc(I)c2)Cc2ccccc21

>  <remaining at 0.05 h>
96%

$$$$
